- Read-out: Urokinase-type plasminogen activator receptor (uPAR), PLAUR (gene 5329)
- protocol description: BSK_BE3C_uPAR: BioMAP Diversity Plus: BE3C Assay for Urokinase-type plasminogen activator receptor (uPAR) Biomarker Activity (AID 2283039)
- measurement parameters: primary human bronchial epithelial cells; actives raise or lower the signal
- Experimental: BSK_BE3C is a cell-based, multiplexed-readout assay that uses bronchial epithelial cell, a human lung primary cell, with measurements taken at 24 hours after chemical dosing in a 96-well plate.BSK_BE3CAR is an assay component measured in the BSK_BE3C assay. It measures uPAR antibody related to regulation of gene expression using ELISA technology.Data from the assay component BSK_BE3CAR was analyzed into 1 assay endpoint. […]
The source made the active and inactive calls. How the source made its calls: active means hit-call score of the fitted dose curve at least 0.9, where 1 is the maximum; inactive means score below 0.9.
Outcomes: true for active, false for inactive

1) CCOC(=O)C(C)Oc1ccc(Oc2nc3ccc(Cl)cc3o2)cc1 (configuration not stated)    false
2) O=C(O)C1(C(=O)Nc2ccc(Cl)cc2Cl)CC1    false
3) COC(=O)c1ccccc1C(=O)O    false
4) CCCCOC(=O)C(C)Oc1ccc(Oc2ccc(C(F)(F)F)cn2)cc1 (configuration not stated)    false
5) C=CCOC(Cn1ccnc1)c1ccc(Cl)cc1Cl (configuration not stated)    false
6) CCOC(=O)NCCOc1ccc(Oc2ccccc2)cc1    false
7) c1ccc2[nH]c(-c3cscn3)nc2c1    false
8) COC(=O)CSc1cc(N=c2sc(=O)n3n2CCCC3)c(F)cc1Cl    false
9) CC(C)CCCCCCc1ccc(O)cc1    true
10) Oc1ccc(C(c2ccc(O)cc2)C(Cl)(Cl)Cl)cc1    true
11) O=C(Nc1ccc([N+](=O)[O-])cc1Cl)c1cc(Cl)ccc1O    true
12) CCOC(=O)C(C)Oc1ccc(Oc2cnc3cc(Cl)ccc3n2)cc1 (configuration not stated)    false
13) CCSC(=O)N(CC(C)C)CC(C)C    false
14) N[C@@H](Cc1cc(I)c(Oc2ccc(O)c(I)c2)c(I)c1)C(=O)O    false
15) CCOC(=O)COc1cc(-n2ncc(C(F)(F)F)c(C)c2=O)c(F)cc1Cl    true
16) CCNc1nc(N)nc(Cl)n1    false
17) COC(=O)c1ccc(I)cc1S(=O)(=O)NC(=O)Nc1nc(C)nc(OC)n1    false
18) CN(C)C(=O)Nc1ccc(Cl)c(Cl)c1    false
19) COC(=O)c1c(Cl)nn(C)c1S(=O)(=O)NC(=O)Nc1nc(OC)cc(OC)n1    false
20) COC(=O)c1cccc(C)c1S(=O)(=O)NC(=O)Nc1nc(OCC(F)(F)F)nc(N(C)C)n1    false
21) c1ccc(Nc2ccccc2)cc1    false
22) CCCCCCC(C)OC(=O)COc1nc(F)c(Cl)c(N)c1Cl (configuration not stated)    false

---

- Read-out: Alpha-fetoprotein (AFP) gene, AFP (gene 174)
- protocol description: LTEA_HepaRG_AFP: Life Technologies and Expression Analysis (LTEA) Assay for Alpha-fetoprotein (AFP) gene using HepaRG (AID 2283472)
- measurement parameters: mRNA level, 48 h; actives raise or lower the signal
- Description: It is a marker of Undifferentiated hepatocyte.Data from the assay component LTEA_HepaRG_AFP was analyzed into 1 endpoint. This assay endpoint, LTEA_HepaRG_AFP, was analyzed with bidirectional fitting relative to DMSO as the negative control and baseline of activity. Using a type of inducible reporter, measures of mRNA induction for gain or loss-of-signal activity can be used to understand regulation of transcription factor activity. […]
The source made the active and inactive calls. The calls were made as follows: active = hit-call score of the fitted dose curve at least 0.9, where 1 is the maximum; inactive = score below 0.9.
Outcome codes: active, inactive

1. CCN(CC)C(=O)c1cccc(C)c1    inactive
2. CC(C)(C)[C@@H](O)[C@@H](Cc1ccc(Cl)cc1)n1cncn1    inactive
3. C[C@]12CC[C@@H]3c4ccc(O)cc4C[C@@H](CCCCCCCCCS(=O)CCCC(F)(F)C(F)(F)F)[C@H]3[C@@H]1CC[C@@H]2O (some centres undefined)    active
4. O=C(c1ccc(O)cc1O)c1ccc(O)cc1O    inactive
5. CCOC(=O)NCCOc1ccc(Oc2ccccc2)cc1    active
6. CCOC(=O)COc1cc(-n2ncc(C(F)(F)F)c(C)c2=O)c(F)cc1Cl    inactive
7. S=C([S-])NCCNC(=S)[S-].[Mn+2]    active
8. COCCO    inactive
9. CC(=O)S[C@@H]1CC2=CC(=O)CC[C@]2(C)[C@H]2CC[C@@]3(C)[C@@H](CC[C@@]34CCC(=O)O4)[C@H]12    active
10. O=C(O)c1ccccc1    inactive
11. CCOC(=O)C(C)Oc1ccc(Oc2cnc3cc(Cl)ccc3n2)cc1 (centres undefined)    inactive
12. c1ccc(Nc2ccccc2)cc1    inactive
13. CCCOC(=O)NCCCN(C)C    inactive
14. CCNc1nc(N)nc(Cl)n1    inactive
15. CCSC(=O)N(CC(C)C)CC(C)C    inactive
16. C[C@]12C[C@H](O)[C@H]3[C@@H](CCC4=CC(=O)CC[C@@]43C)[C@@H]1CC[C@@H]2C(=O)CO    inactive
17. COC(=O)CSc1cc(N=c2sc(=O)n3n2CCCC3)c(F)cc1Cl    inactive
18. c1ccc2[nH]c(-c3cscn3)nc2c1    inactive
19. O=C(O)C1(C(=O)Nc2ccc(Cl)cc2Cl)CC1    active
20. CCCCC(CC)COC(=O)c1ccccc1C(=O)O (centres undefined)    inactive
21. O=C(c1ccccc1)C1CCCCC1    inactive
22. CCC(C)OC(=O)N1CCCCC1CCO (centres undefined)    inactive
23. CCCCCOC(=O)COc1cc(N2C(=O)C3=C(CCCC3)C2=O)c(F)cc1Cl    inactive
24. CCCCCCC(C)OC(=O)COc1nc(F)c(Cl)c(N)c1Cl (centres undefined)    inactive
25. CN(C)C(=O)Nc1ccc(Cl)c(Cl)c1    active
26. CCCCOCCOCCOCc1cc2c(cc1CCC)OCO2    active
27. COc1c(Cl)ccc(Cl)c1C(=O)O    inactive
28. CCCN(CCC)C(=O)SCC    inactive
29. COC(=O)c1ccc(I)cc1S(=O)(=O)NC(=O)Nc1nc(C)nc(OC)n1    inactive
30. COC(=O)c1ccccc1C(=O)O    inactive
31. C=CCOC(Cn1ccnc1)c1ccc(Cl)cc1Cl (centres undefined)    active
32. CCCOC(=O)c1ccc(C(=O)OCCC)nc1    inactive
33. CCCN(CCC)c1c([N+](=O)[O-])cc(C(F)(F)F)c(N)c1[N+](=O)[O-]    active
34. CCCCC(CC)CN1C(=O)C2C3C=CC(C3)C2C1=O (centres undefined)    active

---

- protocol description: CCTE_Shafer_MEA_dev_active_electrodes_number: CCTE's Neural Network Formation Assay for Number of Active Electrodes, Shafer Lab (AID 2284040)
Records with an inconclusive call do not appear. Active and inactive are the calls of the source. Rule for the calls: active = hit-call score of the fitted dose curve at least 0.9, where 1 is the maximum; inconclusive = response in the unintended direction; inactive = score below 0.9.
Classes used: active, inactive

1. CCCCC(CC)CN1C(=O)C2C3C=CC(C3)C2C1=O (centres undefined)    active
2. Oc1ccc(C(c2ccc(O)cc2)C(Cl)(Cl)Cl)cc1    active
3. COCCO    inactive
4. CCCN(CCC)C(=O)SCC    inactive
5. CCCCOCCOCCOCc1cc2c(cc1CCC)OCO2    inactive
6. S=C([S-])NCCNC(=S)[S-].[Mn+2]    inactive
7. Cc1nn(C)c(Oc2ccccc2)c1C=NOCc1ccc(C(=O)OC(C)(C)C)cc1    active
8. C#CCOC(=O)[C@@H](C)Oc1ccc(Oc2ncc(Cl)cc2F)cc1    inactive
9. CCN(CC)C(=O)c1cccc(C)c1    active

---

- Read-out: UDP glucuronosyltransferase (UGT1A6), UGT1A6 (gene 54578)
- protocol description: LTEA_HepaRG_UGT1A6: Life Technologies and Expression Analysis (LTEA) Assay for UDP glucuronosyltransferase (UGT1A6) using HepaRG (AID 2283539)
- measurement parameters: mRNA level, 48 h; actives raise or lower the signal
Calls of active or inactive are those of the source. Rule for the calls: active = hit-call score of the fitted dose curve at least 0.9, where 1 is the maximum; inactive = score below 0.9.
Labels: label 1 for active, label 0 for inactive

1) CCCCCCC(C)OC(=O)COc1nc(F)c(Cl)c(N)c1Cl (configuration not stated)    label 0
2) C#CCOC(=O)[C@@H](C)Oc1ccc(Oc2ncc(Cl)cc2F)cc1    label 0
3) CCCCC(CC)COC(=O)c1ccccc1C(=O)O (configuration not stated)    label 0
4) CCC(C)OC(=O)N1CCCCC1CCO (configuration not stated)    label 0
5) CN(C)C(=O)Nc1ccc(Cl)c(Cl)c1    label 0
6) Cc1nn(C)c(Oc2ccccc2)c1C=NOCc1ccc(C(=O)OC(C)(C)C)cc1    label 1
7) O=C(O)C1(C(=O)Nc2ccc(Cl)cc2Cl)CC1    label 1
8) CC1(C)C(C=C(Cl)Cl)C1C(=O)OCc1cccc(Oc2ccccc2)c1 (configuration not stated)    label 0
9) CCOC(=O)c1ccc(O)cc1    label 0
10) CCOC(=O)COc1cc(-n2ncc(C(F)(F)F)c(C)c2=O)c(F)cc1Cl    label 0
11) CCCCOC(=O)C(C)Oc1ccc(Oc2ccc(C(F)(F)F)cn2)cc1 (configuration not stated)    label 0
12) CCCN(CCC)C(=O)SCC    label 0
